# assay: AUC in iv dosed Sprague-Dawley rat
# Type: ADME, organism-based
# measurementConditions: plasma
Answer each item with its documented AUC.
One number for each entry, in ng·h/mL.

Here is how some compounds turned out for AUC.
CCN(CC)c1ncc(N(CC)S(=O)(=O)c2ccc(F)cc2F)c(N[C@@H](Cc2ccc(OC(=O)N3CCCC3)cc2)C(=O)O)n1: 83000
CCN(CC)c1ncc(N(CC)S(=O)(=O)c2ccc(F)c(F)c2)c(N[C@@H](Cc2ccc(OC(=O)N(C)C)cc2)C(=O)O)n1: 17000
CCN(CC)c1ncc(N(C)S(=O)(=O)c2ccc(F)cc2F)c(N[C@@H](Cc2ccc(OC(=O)N3CCCC3)cc2)C(=O)O)n1: 90000

Provide the reported AUC of each entry below, same order.
1. CCN(CC)c1ncc(N(C)S(=O)(=O)c2ccc(C)cc2)c(N[C@@H](Cc2ccc(OC(=O)N(C)C)cc2)C(=O)O)n1
2. CCN(CC)c1ncc(N(CC)S(=O)(=O)c2ccc(F)cc2)c(N[C@@H](Cc2ccc(OC(=O)N3CCCC3)cc2)C(=O)O)n1
3. C#CCN(c1cnc(N(CC)CC)nc1N[C@@H](Cc1ccc(OC(=O)N2CCCC2)cc1)C(=O)O)S(=O)(=O)c1ccc(F)cc1
4. CCN(CC)c1ncc(N(CC)S(=O)(=O)c2ccc(Cl)cc2)c(N[C@@H](Cc2ccc(OC(=O)N(C)C)cc2)C(=O)O)n1

1: 41000; 2: 111000; 3: 156000; 4: 17000

The compound identified as CCN(CC)c1ncc(N(CC)S(=O)(=O)c2ccc(F)cc2)c(N[C@@H](Cc2ccc(OC(=O)N3CCC3)cc2)C(=O)O)n1 registered its AUC at 34000

###

# testSystem: Integrin alpha-V/beta-1 (Homo sapiens, UniProt P05556+P06756)
# Sequence (P05556 21-798 limits assumed): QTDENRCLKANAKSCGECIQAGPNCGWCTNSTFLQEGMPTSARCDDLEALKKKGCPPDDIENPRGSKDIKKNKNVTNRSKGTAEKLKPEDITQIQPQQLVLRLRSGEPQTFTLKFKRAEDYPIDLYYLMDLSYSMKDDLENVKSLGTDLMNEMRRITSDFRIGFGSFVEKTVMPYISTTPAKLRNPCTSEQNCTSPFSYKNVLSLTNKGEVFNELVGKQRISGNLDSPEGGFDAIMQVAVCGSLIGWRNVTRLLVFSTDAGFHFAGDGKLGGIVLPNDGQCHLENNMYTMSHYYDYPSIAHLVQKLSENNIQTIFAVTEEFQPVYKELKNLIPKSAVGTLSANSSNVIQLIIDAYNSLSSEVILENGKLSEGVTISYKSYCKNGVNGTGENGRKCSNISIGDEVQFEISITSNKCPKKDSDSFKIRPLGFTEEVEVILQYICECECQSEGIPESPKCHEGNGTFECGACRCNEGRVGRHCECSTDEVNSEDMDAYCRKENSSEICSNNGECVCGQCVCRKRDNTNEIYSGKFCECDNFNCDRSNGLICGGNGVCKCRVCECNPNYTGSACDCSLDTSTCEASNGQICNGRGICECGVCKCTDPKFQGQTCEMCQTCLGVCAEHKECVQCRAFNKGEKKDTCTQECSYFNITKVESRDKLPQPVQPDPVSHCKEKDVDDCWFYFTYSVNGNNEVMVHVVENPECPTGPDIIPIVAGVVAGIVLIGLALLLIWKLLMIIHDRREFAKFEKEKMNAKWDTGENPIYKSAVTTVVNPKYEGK
# Sequence (P06756 31-889 limits assumed): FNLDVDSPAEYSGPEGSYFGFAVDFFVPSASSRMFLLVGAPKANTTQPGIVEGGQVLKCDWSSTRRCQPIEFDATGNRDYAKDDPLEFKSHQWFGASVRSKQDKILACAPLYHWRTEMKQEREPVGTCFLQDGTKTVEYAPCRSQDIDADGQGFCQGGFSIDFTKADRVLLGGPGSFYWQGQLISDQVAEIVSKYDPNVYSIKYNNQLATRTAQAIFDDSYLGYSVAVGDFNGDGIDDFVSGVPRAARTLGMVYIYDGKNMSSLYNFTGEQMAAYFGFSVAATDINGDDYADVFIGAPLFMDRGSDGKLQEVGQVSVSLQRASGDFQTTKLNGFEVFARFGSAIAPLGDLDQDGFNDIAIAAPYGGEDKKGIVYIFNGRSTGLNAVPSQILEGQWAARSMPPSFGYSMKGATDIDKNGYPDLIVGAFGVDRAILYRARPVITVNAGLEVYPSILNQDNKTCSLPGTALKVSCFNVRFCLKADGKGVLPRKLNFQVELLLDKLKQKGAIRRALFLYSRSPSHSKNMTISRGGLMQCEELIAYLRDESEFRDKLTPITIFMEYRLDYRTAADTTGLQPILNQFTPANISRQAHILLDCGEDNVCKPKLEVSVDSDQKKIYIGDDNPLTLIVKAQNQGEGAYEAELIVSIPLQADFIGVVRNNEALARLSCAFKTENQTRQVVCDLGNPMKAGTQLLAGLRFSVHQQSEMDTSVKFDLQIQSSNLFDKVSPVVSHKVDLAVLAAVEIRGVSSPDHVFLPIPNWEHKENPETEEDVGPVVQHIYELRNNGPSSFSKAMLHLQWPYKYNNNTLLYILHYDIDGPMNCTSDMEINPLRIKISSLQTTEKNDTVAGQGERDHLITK
# Sequence (P06756 891-1048 limits assumed): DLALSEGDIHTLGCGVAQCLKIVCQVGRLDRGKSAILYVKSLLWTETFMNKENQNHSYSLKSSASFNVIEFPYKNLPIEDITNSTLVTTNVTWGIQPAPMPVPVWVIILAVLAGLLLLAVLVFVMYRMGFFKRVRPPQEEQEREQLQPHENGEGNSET
# assay: Inhibition of integrin alphaVbeta1 (unknown origin) binding to mouse OPN-HIS after 30 mins by fibronectin mediated cell adhesion assay
attributeMeasured: IC50 (µM)
Numbers only, in µM.

Just so you know, measured IC50 for C#CCN(c1cnc(N(CC)CC)nc1N[C@@H](Cc1ccc(OC(=O)N2CCCC2)cc1)C(=O)O)S(=O)(=O)c1ccc(F)cc1 came out at 0.5

###

# assay: Plasma concentration in po dosed Sprague-Dawley rat after 12 hrs
# Type: ADME, organism-based
attributeMeasured: concentration at 12 h (ng/mL)
One number for each entry, in ng/mL.

Known concentration at 12 h results, listed for orientation:
CCN(CC)c1ncc(N(CC)S(=O)(=O)c2ccc(F)cc2)c(N[C@@H](Cc2ccc(OC(=O)N3CCCC3)cc2)C(=O)O)n1: 180
CCN(CC)c1ncc(N(CC)S(=O)(=O)c2ccc(F)cc2)c(N[C@@H](Cc2ccc(OC(=O)N3CCC3)cc2)C(=O)O)n1: 10

Query CCN(CC)c1ncc(N(C)S(=O)(=O)c2ccc(Cl)cc2)c(N[C@@H](Cc2ccc(OC(=O)N(C)C)cc2)C(=O)O)n1 yields concentration at 12 h of 130

###

# assay: AUC in po dosed Sprague-Dawley rat
# Format: ADME, organism-based
# measurementConditions: plasma
For each entry below, report its log10 of AUC value.
Please note: log10 values; quantity AUC; unit ng·h/mL.

Solved entries:
CCN(CC)c1ncc(N(C)S(=O)(=O)c2ccc(F)cc2F)c(N[C@@H](Cc2ccc(OC(=O)N3CCCC3)cc2)C(=O)O)n1: 4.20
CCN(CC)c1ncc(N(CC)S(=O)(=O)c2ccc(F)cc2)c(N[C@@H](Cc2ccc(OC(=O)N3CCCC3)cc2)C(=O)O)n1: 4.71
CCN(CC)c1ncc(N(C)S(=O)(=O)c2ccc(Cl)cc2)c(N[C@@H](Cc2ccc(OC(=O)N3CCCC3)cc2)C(=O)O)n1: 4.71
CCN(CC)c1ncc(N(CC)S(=O)(=O)c2ccc(F)cc2)c(N[C@@H](Cc2ccc(OC(=O)N(C)C)cc2)C(=O)O)n1: 4.15

For each of the compounds below, note its log10 of AUC.
1. CCN(CC)c1ncc(N(CC)S(=O)(=O)c2ccc(Cl)cc2)c(N[C@@H](Cc2ccc(OC(=O)N3CCCC3)cc2)C(=O)O)n1
2. C#CCN(c1cnc(N(CC)CC)nc1N[C@@H](Cc1ccc(OC(=O)N2CCCC2)cc1)C(=O)O)S(=O)(=O)c1ccc(F)cc1

1: 4.53; 2: 4.94
